- protocol_description: Cell Viability - LYMP2-010 (AID 981);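 further: cells exposed to compound for 24 hours at 37 °C; nearly all actives have a fitted effect of over 55% in size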
- test_context: LYMP2-010 lymphoblastoid cell viability, qHTS; series mostly up to 92.2 µM
Inconclusive results are not listed. Activity calls are given as the source filed them. The call rests on the fitted dose curve; in most records, active means well fitted cell-killing curve with a large enough effect; inconclusive means small, poorly fitted or top-dose-only effect; inactive means flat fitted curve, though single readings scatter.
Outcome codes: YES (active), NO (inactive)

- compound: "c1ccc(OCC2CO2)cc1 (configuration not stated)"
  answer_label: "NO"
- compound: "C[N+](=O)[O-]"
  answer_label: "NO"
- compound: "Cc1cc(-c2ccc(N)c(C)c2)ccc1N"
  answer_label: "NO"
- compound: "O=C(Cl)OCc1ccccc1"
  answer_label: "NO"
- compound: "CC[N+](=O)[O-]"
  answer_label: "NO"
- compound: "C/C=C/CC#N"
  answer_label: "NO"
- compound: "CCOC(=O)C1OC1(C)c1ccccc1 (configuration not stated)"
  answer_label: "NO"
- compound: "O=C(O)CBr"
  answer_label: "NO"
- compound: "Nc1cc(Cl)ccc1Cl"
  answer_label: "NO"
- compound: "C=CCOCC1CO1 (configuration not stated)"
  answer_label: "NO"
- compound: "[O-][Cl+2]([O-])O"
  answer_label: "NO"
- compound: "Cc1ccccc1[N+](=O)[O-]"
  answer_label: "NO"
- compound: "Oc1cccc(Cl)c1Cl"
  answer_label: "NO"
- compound: "Nc1ccc(Oc2ccc(N)cc2)cc1"
  answer_label: "NO"
- compound: "C=C(C)CCl"
  answer_label: "NO"
- compound: "C/C=C/C=O"
  answer_label: "NO"
- compound: "Cc1cc(-c2cc(C)c(N)c(C)c2)cc(C)c1N"
  answer_label: "NO"
- compound: "Cc1cc(N=Nc2ccccc2C)ccc1N"
  answer_label: "NO"
- compound: "Cc1cccc(C)c1N"
  answer_label: "NO"
- compound: "Clc1ccc(C(Cl)(Cl)Cl)cc1Cl"
  answer_label: "NO"
- compound: "Clc1ccccc1"
  answer_label: "NO"
- compound: "Nc1ccc(-c2ccc(N)c(Cl)c2)cc1Cl"
  answer_label: "NO"
- compound: "CC(C)[N+](=O)[O-]"
  answer_label: "NO"
- compound: "O=Cc1ccc2c(c1)OCO2"
  answer_label: "NO"
- compound: "Cc1ccc(N)cc1N"
  answer_label: "NO"
- compound: "COc1ccc(C=O)cc1"
  answer_label: "NO"
- compound: "Oc1cc(Cl)ccc1Cl"
  answer_label: "NO"
- compound: "O=C(O)c1cc(Cl)ccc1Cl"
  answer_label: "NO"
- compound: "Nc1ccc(-c2ccc(N)cc2)cc1"
  answer_label: "NO"
- compound: "CC(C)CON=O"
  answer_label: "NO"
- compound: "ClC(Cl)C(Cl)Cl"
  answer_label: "NO"
- compound: "OCCBr"
  answer_label: "NO"
- compound: "COP(=S)(OC)SCn1nnc2ccccc2c1=O"
  answer_label: "NO"
- compound: "Nc1cccc2ccccc12"
  answer_label: "NO"
- compound: "CC(Cl)(Cl)Cl"
  answer_label: "NO"
- compound: "OC[P+](CO)(CO)CO"
  answer_label: "YES"
- compound: "CN=C=O"
  answer_label: "NO"
- compound: "C=CC#N"
  answer_label: "NO"
- compound: "COC(=O)c1ccccc1N"
  answer_label: "NO"
- compound: "CCN(N=O)C(N)=O"
  answer_label: "NO"
- compound: "CCCCC(=O)Cl"
  answer_label: "NO"
- compound: "ClC(Cl)Br"
  answer_label: "NO"
- compound: "C=C(Cl)CCl"
  answer_label: "NO"
- compound: "Nc1ccc(Cc2ccc(N)c(Cl)c2)cc1Cl"
  answer_label: "NO"
- compound: "Cc1ccc2c(c1N)C(=O)c1ccccc1C2=O"
  answer_label: "NO"
- compound: "COc1ccccc1N"
  answer_label: "NO"
- compound: "Nc1ncc([N+](=O)[O-])s1"
  answer_label: "NO"
- compound: "CC(C)(OOC(C)(C)c1ccccc1)c1ccccc1"
  answer_label: "NO"
- compound: "CC(=O)[O-].CC(=O)[O-].CC(=O)[O-].[Cr+3]"
  answer_label: "NO"
- compound: "COC(C)(C)C"
  answer_label: "NO"
- compound: "Cc1ccc(OP(=O)(Oc2ccc(C)cc2)Oc2ccc(C)cc2)cc1"
  answer_label: "NO"
- compound: "CN(C)c1ccc(N(C)C)cc1"
  answer_label: "YES"
- compound: "C=CCO"
  answer_label: "NO"
- compound: "CN1CSC(=S)N(C)C1"
  answer_label: "YES"
- compound: "ClCCBr"
  answer_label: "NO"
- compound: "ClCCOCCCl"
  answer_label: "NO"
- compound: "CN(C)C(=O)Cl"
  answer_label: "NO"
- compound: "ClCC(Br)CBr (configuration not stated)"
  answer_label: "NO"
- compound: "Cc1cnc[nH]1"
  answer_label: "NO"
- compound: "CC(C)Br"
  answer_label: "NO"
- compound: "Nc1ccc(-c2ccccc2)cc1"
  answer_label: "NO"
- compound: "O=[N+]([O-])c1cc(Cl)c(Cl)cc1Cl"
  answer_label: "NO"
- compound: "C=CC(=O)OC"
  answer_label: "NO"
- compound: "CC(C)OS(C)(=O)=O"
  answer_label: "NO"
- compound: "O=[N+]([O-])CCO"
  answer_label: "NO"
- compound: "CCCCOC(C)=O"
  answer_label: "NO"
- compound: "CCN(CC)N=O"
  answer_label: "NO"
- compound: "Cl/C=C/CCl"
  answer_label: "NO"
- compound: "c1ccc(NNc2ccccc2)cc1"
  answer_label: "NO"
- compound: "Cc1cc(C)cc(OP(=O)(Oc2cc(C)cc(C)c2)Oc2cc(C)cc(C)c2)c1"
  answer_label: "NO"
- compound: "Cc1ccc(N)c(C)c1"
  answer_label: "NO"
- compound: "O=[N+]([O-])c1ccccc1-c1ccccc1"
  answer_label: "NO"

This collection of values is drawn from PubChem BioAssay (NCATS).
